# System: line DC-3F/AD
# PROTOCOL TEXT: Flow cytometry: intracellular accumulation of adriamycin by cells of the line DC-3F/AD
# Format: cell-based, Chinese hamster
# CONDITION NOTES: 5.0 μM compound; ADR 50 μM; 5 hours
Reported VAR-MEAN (increase in ADR fluorescence), line DC-3F/AD is given for each of the following compounds.
ASSAY READOUT: VAR-MEAN (increase in ADR fluorescence), line DC-3F/AD

COMPOUND: C=CCNc1nc(NCC=C)nc(N2CCC(NCC3c4ccccc4CCc4cc(OC)ccc43)CC2)n1 (racemic) [Example 31]
ASSAY VALUE: 30.8
//
COMPOUND: C=CCNc1nc(NCC=C)nc(N2CCC(NCC3c4ccccc4CS(=O)(=O)c4ccccc43)CC2)n1 (racemic) [Example 32]
ASSAY VALUE: 12.4
//
COMPOUND: C=CCNc1nc(NCC=C)nc(N2CCC(NCC3c4ccccc4Oc4ccccc43)CC2)n1 [Example 9]
ASSAY VALUE: 19.4
//
COMPOUND: C=CCNc1nc(NCC)nc(N2CCC(NCC3c4ccccc4COc4ccccc43)CC2)n1 (racemic) [Example 29]
ASSAY VALUE: 18.0
//
COMPOUND: C=CCNc1nc(NCC=C)nc(N2CCC(NCC3c4ccccc4-c4ccccc43)CC2)n1 [Example 13]
ASSAY VALUE: 19.6
//
COMPOUND: C=CCNc1nc(NCC=C)nc(NCC(O)CN2CCC(NCC3c4ccccc4CCc4ccccc43)CC2)n1 (stereo not shown) [Example 17]
ASSAY VALUE: 10.5
//
COMPOUND: C=CCNc1nc(NCC=C)nc(N2CCN(C3c4ccccc4CCc4ccccc43)CC2)n1 [Example 1]
ASSAY VALUE: 16.0
//
COMPOUND: C=CCNc1nc(NCC)nc(N2CCC(NCC3c4ccccc4CCc4ccccc43)CC2)n1 [Example 22]
ASSAY VALUE: 23.1
//
COMPOUND: C=CCNc1nc(NCC=C)nc(N2CCC(NCC3c4ccccc4COc4ccccc43)CC2)n1 (racemic) [Example 19]
ASSAY VALUE: 25.5
//
COMPOUND: C=CCNc1nc(NCC=C)nc(N2CCC(CNC3c4ccccc4CCc4ccccc43)CC2)n1 [Example 23]
ASSAY VALUE: 14.0
//
COMPOUND: C=CCNc1nc(NCC=C)nc(N2CCC(NCC3c4ccccc4CCc4ccccc43)CC2)n1 [Example 3]
ASSAY VALUE: 28.3
//
COMPOUND: C=CCNc1nc(NCC=C)nc(N2CCC(NC3c4ccccc4CCc4ccccc43)CC2)n1 [Example 4]
ASSAY VALUE: 25.5
//
COMPOUND: C=CCNc1nc(NCC=C)nc(N2CCN(NCC3c4ccccc4CCc4ccccc43)CC2)n1 [Example 24]
ASSAY VALUE: 21.1
//
COMPOUND: C=CCNc1nc(NCC=C)nc(N2CCC(NCC3c4ccccc4NC(=O)c4ccccc43)CC2)n1 (racemic) [Example 27]
ASSAY VALUE: 2.2
//
COMPOUND: C=CCNc1nc(NCC=C)nc(NCC2CCN(CC3c4ccccc4CCc4ccccc43)CC2)n1 [Example 8]
ASSAY VALUE: 19.3
//
COMPOUND: C=CCNc1nc(NCC=C)nc(NCC(O)CN2CCN(C3c4ccccc4CCc4ccccc43)CC2)n1 (stereo not shown) [Example 6]
ASSAY VALUE: 24.3
//
COMPOUND: COc1ccc(CCN(C)CCCC(C#N)(c2ccc(OC)c(OC)c2)C(C)C)cc1OC (stereo not shown) [verapamil, reference compound]
ASSAY VALUE: 5.6
//
COMPOUND: C=CCNc1nc(NCC=C)nc(NCC(O)CN2CCC(NC3c4ccccc4CCc4ccccc43)CC2)n1 (stereo not shown) [Example 16]
ASSAY VALUE: 10.4
//
COMPOUND: C=CCNc1nc(NCCC)nc(N2CCC(NCC3c4ccccc4CCc4ccccc43)CC2)n1 [Example 5]
ASSAY VALUE: 27.3
//
COMPOUND: C=CCNc1nc(NCC=C)nc(N2CCC(NCC3c4ccccc4N(C)S(=O)(=O)c4cc(Cl)ccc43)CC2)n1 (racemic) [Example 21]
ASSAY VALUE: 22.8
//
COMPOUND: C=CCNc1nc(NCC=C)nc(NCCN2CCC(NC3c4ccccc4CCc4ccccc43)CC2)n1 [Example 12]
ASSAY VALUE: 10.4
//
COMPOUND: C=CCNc1nc(NCC=C)nc(N2CCC(NCC3c4ccccc4C=Cc4ccccc43)CC2)n1 [Example 11]
ASSAY VALUE: 24.5
//
COMPOUND: C=CCNc1nc(NCC=C)nc(NCCN2CCC(NCC3c4ccccc4CCc4ccccc43)CC2)n1 [Example 15]
ASSAY VALUE: 13.7
//
COMPOUND: C=CCNc1nc(N)nc(N2CCC(NCC3c4ccccc4CCc4ccccc43)CC2)n1 [Example 18]
ASSAY VALUE: 6.7
//
COMPOUND: C=CCNc1nc(NCC=C)nc(N2CCC(NCC34CCC(c5ccccc53)c3ccccc34)CC2)n1 [Example 10]
ASSAY VALUE: 20.2
